- Tested on: HCT-116
- assay-procedure: NCI tumour cell line growth inhibition, 48 h
Active and inactive are the calls of the source. Cut-off read from the data, not from the text of the source: active = GI50 up to about 1.1 µM and inactive = higher.
Classes used: active, inactive

[[record]]
compound = "NC1=NC2=c3ccccc3=C(c3cnccn3)C2(c2cnccn2)c2ccccc21 (configuration not stated)"
classification = "inactive"

[[record]]
compound = "CN(Cc1cnc2nc(N)nc(N)c2n1)c1ccc(C(=O)NC(CCC(=O)O)C(=O)O)cc1 (configuration not stated)"
classification = "active"

[[record]]
compound = "COC(=O)C1(Cc2ccccc2)Cc2ccc3c(c2C1=O)CCC3 (configuration not stated)"
classification = "inactive"

[[record]]
compound = "C=CCCC(=O)CC(=O)OCc1ccccc1"
classification = "inactive"

[[record]]
compound = "O=C(CN(C(=O)OC12CC3CC(CC(C3)C1)C2)C(=O)OC12CC3CC(CC(C3)C1)C2)Oc1ccc([N+](=O)[O-])cc1"
classification = "inactive"

[[record]]
compound = "Cc1cc(C)nc(NS(=O)(=O)c2ccc(Nc3c4ccccc4nc4c(C(=O)Nc5ccc(S(=O)(=O)Nc6cc(C)on6)cc5)cccc34)cc2)n1"
classification = "inactive"

[[record]]
compound = "COC1OC(COCc2ccc(Cl)cc2)C(OCc2ccc(Cl)cc2)C1N=[N+]=[N-] (configuration not stated)"
classification = "inactive"

[[record]]
compound = "O=C(O)c1ccccc1C(=O)OCC1CCCN2CCCCC12 (configuration not stated)"
classification = "inactive"

[[record]]
compound = "CC(C)c1cccc2sc(NC(=O)C(=O)C(C#N)c3cccc4ccccc34)nc12 (configuration not stated)"
classification = "inactive"

[[record]]
compound = "O=c1o[nH]/c(=N/c2ccccc2)n1-c1ccccc1"
classification = "inactive"

[[record]]
compound = "N=C(N)N/N=C\\c1c(-c2ccccc2)nc2sccn12"
classification = "inactive"

[[record]]
compound = "C/C(=N/CC(=O)O)c1ccccc1"
classification = "inactive"

[[record]]
compound = "O=C1C(Cl)=C(N2CCN(C3=C(Cl)C(=O)c4ccccc4C3=O)CC2)C(=O)c2ccccc21"
classification = "inactive"

[[record]]
compound = "CN(c1ccccc1)c1c(Cl)c(=O)oc2c1ccc1occc12"
classification = "inactive"

[[record]]
compound = "CC(C)(C)OC(=O)N1CCCC1C(=O)NC(c1ccccc1)c1ccccc1 (configuration not stated)"
classification = "inactive"

[[record]]
compound = "COCCOCCOC1=C(Cl)C(=O)c2c(O)ccc(O)c2C1=O"
classification = "active"

[[record]]
compound = "CC(=O)N1C=Cc2c(c(C)c3c([nH]c4ccccc43)c2C)C1"
classification = "inactive"

[[record]]
compound = "O=C1CSC(c2c[nH]c3ccccc23)N1c1ccc(Cl)cc1 (configuration not stated)"
classification = "inactive"

[[record]]
compound = "C[N+]1(Cc2ccc(Cl)c(Cl)c2)CCCC1C1CCCN(Cc2ccc(Cl)c(Cl)c2)C1 (configuration not stated)"
classification = "inactive"

[[record]]
compound = "N#CC(Nc1cccc(C(F)(F)F)c1)c1ccccc1C(F)(F)F (configuration not stated)"
classification = "inactive"

[[record]]
compound = "CSCC[C@@H]1C(=O)N(C)[C@H](C(C)(C)C)N1C(=O)c1ccccc1"
classification = "inactive"

[[record]]
compound = "c1csc(-c2cc(-c3ccsc3)c(-c3ccsc3)s2)c1"
classification = "inactive"

